Test system: soybean
method.notes: Test B pre/postemergence soybean
Type: in vivo, Glycine max
reported.conditions: Postemergence, Rate 62 g/ha; scale 0 to 10, 0 is no effect, 10 is complete control
endpoint.label: Soybean plant response rating

compound_structure=Cc1nn(C)c(C)c1-n1c(=O)on(C(=O)N(c2ccc(F)cc2)C(C)C)c1=O endpoint_label="Soybean plant response rating" measured_result=1
compound_structure=Cc1cccc(C)c1-n1c(=O)on(C(=O)N(c2ccccc2)C(C)C)c1=O endpoint_label="Soybean plant response rating" measured_result=1
compound_structure=Cc1ccccc1-n1c(=O)on(C(=O)N(C2=CCOCC2)C(C)C)c1=O endpoint_label="Soybean plant response rating" measured_result=3
compound_structure=CCN(CC)C(=O)n1oc(=O)n(-c2cccc3c2CCCC3)c1=O endpoint_label="Soybean plant response rating" measured_result=0
compound_structure=CC(C)N(C(=O)n1oc(=O)n(Cc2cccs2)c1=O)c1ccc(F)cc1 endpoint_label="Soybean plant response rating" measured_result=0
